- System: HT-29
- assay_method_text: NCI tumour cell line growth inhibition, 48 h
Active and inactive are the calls of the source. Cut-off read from the data, not from the text of the source: active = GI50 up to about 1.1 µM and inactive = higher.
// allowed return values: active, inactive

Field: outcome | Entry: `CC(C)(C)c1cc(C(C)(C)C)c2sc(=S)oc2c1O`
inactive

I would be grateful if you could indicate the recorded call for `CCOC(=O)c1ccc(NC(=O)O/N=C(/Cl)C(C)C)cc1` .
inactive

Field: outcome | Entry: `O=C(Nc1cc(Cl)ccc1Cl)c1cc2ccccc2oc1=O`
inactive

// return assay outcome for `O=C1C(=O)N(c2ccc(Cl)c(Cl)c2)C(=O)C(=O)C1c1nc2ccccc2o1`
inactive

# lookup: test call for `CSc1n[n+]2c(s1)SCCC2`
inactive

How was CCC(C)(O)c1cnc(CC(C)C)c(=O)n1O (stereo not given) classified in this test?
inactive

Entry `CN(C)CCNC(=O)c1cccc2nc(-c3ccccc3)oc12` : call = ?
inactive
